target: hERG channel (Homo sapiens (Human), UniProt Q12809); assay: hERG voltage clamp assay in hERG-expressing cultured cells; type: cell-based; settings: human, hERG-expressing cultured cells; 1 μM; read-out: hERG Activity (% Inhibition of Tail Current)
Sequence (Q12809 whole entry): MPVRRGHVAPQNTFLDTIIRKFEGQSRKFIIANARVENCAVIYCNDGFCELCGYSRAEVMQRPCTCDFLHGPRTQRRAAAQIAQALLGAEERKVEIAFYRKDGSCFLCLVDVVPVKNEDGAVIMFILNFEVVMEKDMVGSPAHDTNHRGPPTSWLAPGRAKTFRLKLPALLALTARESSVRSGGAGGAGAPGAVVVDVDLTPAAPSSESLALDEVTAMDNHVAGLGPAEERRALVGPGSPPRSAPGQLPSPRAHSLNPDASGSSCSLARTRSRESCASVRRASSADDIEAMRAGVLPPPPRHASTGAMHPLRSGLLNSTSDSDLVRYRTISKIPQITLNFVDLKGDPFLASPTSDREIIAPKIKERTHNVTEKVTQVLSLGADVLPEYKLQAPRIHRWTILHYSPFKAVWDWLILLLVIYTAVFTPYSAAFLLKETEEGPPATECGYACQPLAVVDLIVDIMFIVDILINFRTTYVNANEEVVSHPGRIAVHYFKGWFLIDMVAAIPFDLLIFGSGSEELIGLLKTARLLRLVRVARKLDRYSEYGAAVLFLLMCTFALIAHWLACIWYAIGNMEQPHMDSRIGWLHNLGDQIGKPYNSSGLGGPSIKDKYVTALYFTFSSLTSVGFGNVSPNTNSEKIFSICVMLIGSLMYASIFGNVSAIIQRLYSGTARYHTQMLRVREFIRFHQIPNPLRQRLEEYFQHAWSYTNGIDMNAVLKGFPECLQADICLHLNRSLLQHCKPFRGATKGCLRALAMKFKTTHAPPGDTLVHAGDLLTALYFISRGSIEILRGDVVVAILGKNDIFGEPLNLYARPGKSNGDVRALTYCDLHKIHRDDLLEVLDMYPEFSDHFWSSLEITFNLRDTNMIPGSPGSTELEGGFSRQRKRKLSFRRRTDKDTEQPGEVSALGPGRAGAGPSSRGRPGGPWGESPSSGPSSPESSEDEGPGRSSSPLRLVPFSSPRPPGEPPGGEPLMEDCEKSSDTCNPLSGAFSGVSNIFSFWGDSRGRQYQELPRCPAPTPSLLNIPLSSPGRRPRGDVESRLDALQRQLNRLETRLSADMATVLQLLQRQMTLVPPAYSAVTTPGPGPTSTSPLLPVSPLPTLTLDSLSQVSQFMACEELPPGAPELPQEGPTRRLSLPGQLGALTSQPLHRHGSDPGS
Give measured inhibition at 1 µM for each item. Keep answers brief.
Answers are plain numbers, in %.

                                   molecule                             tested_target           parameter  recorded_measurement
0  CS(=O)(=O)c1ccc2c(c1)N(CCCN1CCC(C(=O)O)CC1)c1ccccc1S2 [Metopimazine acid]  hERG channel (Homo sapiens (Human), UniProt Q12809)  inhibition at 1 µM                     4

// inhibition at 1 µM value for CS(=O)(=O)c1ccc2c(c1)N(CCCN1CCC(C(N)=O)CC1)c1ccccc1S2 [Metopimazine] : 32
